This collection of values is drawn from the supplement of paper PMC6607015.

System: HeLa MZ
methodNotes: whole-cell filipin (free cholesterol) integrated intensity, Z-score; higher = more cholesterol staining
details: compound concentration in added solution (µM; 5 µl added to 20 µl cells): 10; 18 h
Counter-ions that a name gives are not always drawn.
Classification field: enter yes for whole-cell filipin (z-score) values not below 0.3, no for values below it.

Tell me whether whole-cell filipin (z-score) is at least 0.3 here: CN(C)C(=O)C(CCN1CCC(O)(c2ccc(Cl)cc2)CC1)(c1ccccc1)c1ccccc1 [Loperamide hydrochloride]
yes

Tell me whether whole-cell filipin (z-score) is at least 0.3 here: CCC1=C(C)CN(C(=O)NCCc2ccc(S(=O)(=O)NC(=O)N[C@H]3CC[C@H](C)CC3)cc2)C1=O [Glimepiride]
no

Tell me whether whole-cell filipin (z-score) is at least 0.3 here: COc1ccc([C@@H]2CC(=O)c3c(O)cc(O[C@@H]4O[C@H](CO[C@@H]5O[C@@H](C)[C@H](O)[C@@H](O)[C@H]5O)[C@@H](O)[C@H](O)[C@H]4O)cc3O2)cc1O
no

Tell me whether whole-cell filipin (z-score) is at least 0.3 here: C=CCSCC1Nc2cc(Cl)c(S(N)(=O)=O)cc2S(=O)(=O)N1 (configuration not stated) [Althiazide]
no

Tell me whether whole-cell filipin (z-score) is at least 0.3 here: COc1ccc2cc([C@H](C)C(=O)O)ccc2c1
no

Tell me whether whole-cell filipin (z-score) is at least 0.3 here: CCCOc1ccccc1-c1nc2[nH]nnc2c(=O)[nH]1
no

Tell me whether whole-cell filipin (z-score) is at least 0.3 here: C1N2CN3CN1CN(C2)C3
yes

Tell me whether whole-cell filipin (z-score) is at least 0.3 here: CCn1cc(C(=O)O)c(=O)c2cnc(N3CCNCC3)nc21
yes

Tell me whether whole-cell filipin (z-score) is at least 0.3 here: CO/N=C(\C(=O)N[C@@H]1C(=O)N2C(C(=O)O)=C(COC(N)=O)CS[C@H]12)c1ccco1 [Cefuroxime sodium salt]
no

Tell me whether whole-cell filipin (z-score) is at least 0.3 here: COC(c1ccccc1)(c1ccccc1)[C@H](Oc1nc(C)cc(C)n1)C(=O)O
yes

Tell me whether whole-cell filipin (z-score) is at least 0.3 here: CN1CCCC(n2nc(Cc3ccc(Cl)cc3)c3ccccc3c2=O)CC1 (configuration not stated) [Azelastine HCl]
yes

Tell me whether whole-cell filipin (z-score) is at least 0.3 here: COC(=O)C1=C(C#N)NC(C)=C(C(=O)OC(C)C)C1c1cccc([N+](=O)[O-])c1 (configuration not stated)
yes

Tell me whether whole-cell filipin (z-score) is at least 0.3 here: O=c1n(CCCN2CCN(c3cccc(Cl)c3)CC2)nc2ccccn12 [Trazodone hydrochloride]
yes

Tell me whether whole-cell filipin (z-score) is at least 0.3 here: C=C1c2cccc(O)c2C(=O)C2=C(O)[C@]3(O)C(=O)C(C(N)=O)=C(O)[C@@H](N(C)C)[C@@H]3[C@@H](O)[C@H]12 [Methacycline hydrochloride]
no

Tell me whether whole-cell filipin (z-score) is at least 0.3 here: CC(=O)OCC(=O)[C@@]1(O)CC[C@H]2[C@@H]3CCC4=CC(=O)C=C[C@]4(C)[C@@]3(F)[C@@H](O)C[C@@]21C [Isoflupredone acetate]
no

Tell me whether whole-cell filipin (z-score) is at least 0.3 here: Cn1c(=O)c2c(ncn2CC(O)CO)n(C)c1=O (configuration not stated)
no

Tell me whether whole-cell filipin (z-score) is at least 0.3 here: CN1CCN(c2c(F)cc3c(=O)c(C(=O)O)cn(CCF)c3c2F)CC1
no

Tell me whether whole-cell filipin (z-score) is at least 0.3 here: CN1[C@@H]2CC[C@H]1C[C@@H](OC(=O)C(O)c1ccccc1)C2 (mixture of isomers) [Homatropine hydrobromide (R,S)]
no

Tell me whether whole-cell filipin (z-score) is at least 0.3 here: C[n+]1ccccc1/C=N/O [Pralidoxime chloride]
no

Tell me whether whole-cell filipin (z-score) is at least 0.3 here: C#C[C@]1(OC(C)=O)CC[C@H]2[C@@H]3CCC4=CC(=NO)CC[C@@H]4[C@H]3CC[C@@]21CC (mixture of isomers) [Norgestimate]
no

Tell me whether whole-cell filipin (z-score) is at least 0.3 here: CC(=O)N(CC(C)C(=O)O)c1c(I)cc(I)c(N)c1I (configuration not stated)
no

Tell me whether whole-cell filipin (z-score) is at least 0.3 here: O=C1C(CC[S+]([O-])c2ccccc2)C(=O)N(c2ccccc2)N1c1ccccc1 (configuration not stated)
no

Tell me whether whole-cell filipin (z-score) is at least 0.3 here: COc1ccccc1OCCNCC(O)COc1cccc2[nH]c3ccccc3c12 (configuration not stated)
yes

Tell me whether whole-cell filipin (z-score) is at least 0.3 here: CCCCC1(COC(=O)CCC(=O)O)C(=O)N(c2ccccc2)N(c2ccccc2)C1=O
yes

Tell me whether whole-cell filipin (z-score) is at least 0.3 here: O=C(NCCO[N+](=O)[O-])c1cccnc1
no

Tell me whether whole-cell filipin (z-score) is at least 0.3 here: COCC(=O)Nc1c(I)c(C(=O)NCC(O)CO)c(I)c(C(=O)N(C)CC(O)CO)c1I (configuration not stated) [Iopromide]
no

Tell me whether whole-cell filipin (z-score) is at least 0.3 here: O=c1[nH]c(=O)n([C@H]2C[C@H](O)[C@@H](CO)O2)cc1I
yes

Tell me whether whole-cell filipin (z-score) is at least 0.3 here: CCCCCCCCNC(C)C(O)c1ccc(SC(C)C)cc1 (configuration not stated)
yes

Tell me whether whole-cell filipin (z-score) is at least 0.3 here: O=C1CN(/N=C/c2ccc(-c3ccc([N+](=O)[O-])cc3)o2)C(=O)N1 [Dantrolene sodium salt]
no

Tell me whether whole-cell filipin (z-score) is at least 0.3 here: Cn1c([N+](=O)[O-])cnc1COC(N)=O
no

Tell me whether whole-cell filipin (z-score) is at least 0.3 here: CC[N+](CC)(CC)CCOc1cccc(OCC[N+](CC)(CC)CC)c1OCC[N+](CC)(CC)CC [Gallamine triethiodide]
no

Tell me whether whole-cell filipin (z-score) is at least 0.3 here: CC(=O)OCC(=O)[C@@]12OC(C)(C)O[C@@H]1C[C@H]1[C@@H]3C[C@H](F)C4=CC(=O)C=C[C@]4(C)[C@@]3(F)[C@@H](O)C[C@@]12C [Fluocinonide]
no

---

Test system: A431
methodNotes: LBPA endosome anti-LBPA integrated intensity (sum per cell), Z-score; higher = more LBPA staining
details: compound concentration in added solution (µM; 5 µl added to 20 µl cells): 10; 18 h
Structures can show the parent of a compound that is named as a salt.
readoutName: LBPA endosome anti-LBPA integrated intensity (z-score)

Which LBPA endosome anti-LBPA integrated intensity (z-score) is reported for this molecule? CC(C)NC(=N)NC(=N)Nc1ccc(Cl)cc1 [Proguanil hydrochloride]
-0.302

Which LBPA endosome anti-LBPA integrated intensity (z-score) is reported for this molecule? CCOC(=O)[C@@](C)(N)Cc1ccc(O)c(O)c1 [Methyldopate hydrochloride]
-0.346

Which LBPA endosome anti-LBPA integrated intensity (z-score) is reported for this molecule? CN1CCCCC1CCN1c2ccccc2Sc2ccc([S+](C)[O-])cc21 (stereo not drawn) [Mesoridazine besylate]
0.975

Which LBPA endosome anti-LBPA integrated intensity (z-score) is reported for this molecule? CC(C)(C)NC[C@@H](O)COc1cccc2c1CCCC2=O [(+) -Levobunolol hydrochloride]
-0.326

Which LBPA endosome anti-LBPA integrated intensity (z-score) is reported for this molecule? Cn1c(=O)c2c(ncn2CCO)n(C)c1=O
-0.487

Which LBPA endosome anti-LBPA integrated intensity (z-score) is reported for this molecule? CNCCC(Oc1ccccc1OC)c1ccccc1 (stereo not drawn) [Nisoxetine hydrochloride]
-0.0713

Which LBPA endosome anti-LBPA integrated intensity (z-score) is reported for this molecule? Nc1nc2c(ncn2COC(CO)CO)c(=O)[nH]1
-0.282

Which LBPA endosome anti-LBPA integrated intensity (z-score) is reported for this molecule? COc1cc2ncnc(Nc3ccc(F)c(Cl)c3)c2cc1OCCCN1CCOCC1
3.94

Which LBPA endosome anti-LBPA integrated intensity (z-score) is reported for this molecule? O=C(Cn1ccnc1[N+](=O)[O-])NCCO
-0.499

Which LBPA endosome anti-LBPA integrated intensity (z-score) is reported for this molecule? CC(=O)OCC(=O)[C@@]1(O)CC[C@H]2[C@@H]3CCC4=CC(=O)CC[C@]4(C)[C@H]3[C@@H](O)C[C@@]21C [Cortisol acetate]
-0.325

Which LBPA endosome anti-LBPA integrated intensity (z-score) is reported for this molecule? CCC1NC(=O)c2cc(S(N)(=O)=O)c(Cl)cc2N1 (stereo not drawn)
-0.328

Which LBPA endosome anti-LBPA integrated intensity (z-score) is reported for this molecule? COc1c(N2CCNC(C)C2)c(F)cc2c(=O)c(C(=O)O)cn(C3CC3)c12 (stereo not drawn)
-0.517

Which LBPA endosome anti-LBPA integrated intensity (z-score) is reported for this molecule? Nc1ccc(S(=O)(=O)Nc2ccc(Cl)nn2)cc1
-0.463

Which LBPA endosome anti-LBPA integrated intensity (z-score) is reported for this molecule? CN(C)CCC(c1ccc(Cl)cc1)c1ccccn1 (stereo not drawn) [Chlorpheniramine maleate]
-0.653

Which LBPA endosome anti-LBPA integrated intensity (z-score) is reported for this molecule? O=C(O)Cc1ccc(-c2ccccc2)cc1
-0.537

Which LBPA endosome anti-LBPA integrated intensity (z-score) is reported for this molecule? COc1ccc(CC2c3cc(OC)c(OC)cc3CC[N+]2(C)CCC(=O)OCCCCCOC(=O)CC[N+]2(C)CCc3cc(OC)c(OC)cc3C2Cc2ccc(OC)c(OC)c2)cc1OC (stereo not drawn) [Atracurium besylate]
-0.229

Which LBPA endosome anti-LBPA integrated intensity (z-score) is reported for this molecule? CCCCc1nc(Cl)c(CO)n1Cc1ccc(-c2ccccc2-c2nnn[nH]2)cc1
-0.107

Which LBPA endosome anti-LBPA integrated intensity (z-score) is reported for this molecule? CCCC(=O)Nc1ccc(OCC(O)CNC(C)C)c(C(C)=O)c1 (stereo not drawn) [Acebutolol hydrochloride]
-0.335
